Where do the numbers come from? From patent US6413986B1.

# pIC50 values compiled below
STUDY_TARGET: Acetylcholinesterase (Rattus norvegicus)
Sequence (P37136 32-614): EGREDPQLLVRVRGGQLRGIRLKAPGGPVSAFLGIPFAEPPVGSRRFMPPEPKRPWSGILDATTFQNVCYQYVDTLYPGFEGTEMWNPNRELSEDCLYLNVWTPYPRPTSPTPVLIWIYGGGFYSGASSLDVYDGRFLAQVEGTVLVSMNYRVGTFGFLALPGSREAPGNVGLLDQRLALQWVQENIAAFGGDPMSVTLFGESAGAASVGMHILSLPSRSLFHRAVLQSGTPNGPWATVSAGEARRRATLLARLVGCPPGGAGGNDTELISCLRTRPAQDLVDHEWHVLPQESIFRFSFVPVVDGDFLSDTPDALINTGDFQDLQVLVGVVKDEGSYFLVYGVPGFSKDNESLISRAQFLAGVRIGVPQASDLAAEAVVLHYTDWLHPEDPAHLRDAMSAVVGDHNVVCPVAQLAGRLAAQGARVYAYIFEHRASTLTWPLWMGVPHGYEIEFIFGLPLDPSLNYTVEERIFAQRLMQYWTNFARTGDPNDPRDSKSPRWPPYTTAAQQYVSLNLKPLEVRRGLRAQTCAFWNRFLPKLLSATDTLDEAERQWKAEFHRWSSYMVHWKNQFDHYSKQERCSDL
pIC50: −log10 of the molar value.
ENDPOINT_NAME: pIC50

[
  {
    "COMPOUND": "CNC(=O)Oc1ccc2c(c1)C(=O)C(CC1CCN(Cc3ccccc3)CC1)C2 (stereo not shown)",
    "ENDPOINT_NAME": "pIC50",
    "ASSAY_RESULT": 5.87
  },
  {
    "COMPOUND": "CCCCNC(=O)Oc1ccc2c(c1)C(=O)C(CC1CCN(Cc3ccccc3)CC1)C2 (stereo not shown)",
    "ENDPOINT_NAME": "pIC50",
    "ASSAY_RESULT": 5.84
  },
  {
    "COMPOUND": "CNC(=O)Oc1ccc2c(c1)C(=O)C(CC1CCN(Cc3cccc(F)c3)CC1)C2 (stereo not shown)",
    "ENDPOINT_NAME": "pIC50",
    "ASSAY_RESULT": 5.82
  },
  {
    "COMPOUND": "O=C(NCc1ccccc1)Oc1ccc2c(c1)C(=O)C(CC1CCN(Cc3cccc(F)c3)CC1)C2 (stereo not shown)",
    "ENDPOINT_NAME": "pIC50",
    "ASSAY_RESULT": 5.50
  }
]
